tgt: human A3ARs (Homo sapiens (Human), UniProt P0DMS8)
Sequence (P0DMS8 whole entry): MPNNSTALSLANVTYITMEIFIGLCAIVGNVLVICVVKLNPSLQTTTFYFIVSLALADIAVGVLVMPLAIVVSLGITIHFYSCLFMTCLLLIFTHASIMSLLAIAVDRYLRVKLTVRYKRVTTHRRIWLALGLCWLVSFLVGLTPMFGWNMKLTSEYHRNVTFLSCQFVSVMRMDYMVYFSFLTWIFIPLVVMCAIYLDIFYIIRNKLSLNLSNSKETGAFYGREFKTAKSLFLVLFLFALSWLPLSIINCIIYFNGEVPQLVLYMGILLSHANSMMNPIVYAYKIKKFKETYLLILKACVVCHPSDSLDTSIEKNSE
experimental-details: Cyclic AMP accumulation assay, efficacy at hA3AR
Format: cell-based
condition-label: compared to maximal effect by 2-Cl-IB-MECA alone (control = 100%)
measured-property: % Increase of efficacy at hA3AR at 10 μM (%)
Dear colleague, please return just the value in %, with no unit written.

These solved cases illustrate the format of a correct answer.
>  <molecule>
c1ccc2c(c1)nc(Nc1ccc3c(c1)CCC3)c1nc(C3CCCC3)[nH]c12 [Compound 36]

>  <tgt>
human A3ARs (Homo sapiens (Human), UniProt P0DMS8)

>  <% Increase of efficacy at hA3AR at 10 μM, %>
111

$$$$
>  <molecule>
COc1ccc(Nc2nc3ccccc3c3[nH]c(C4CCCC4)nc23)cc1 [Compound 32]

>  <tgt>
human A3ARs (Homo sapiens (Human), UniProt P0DMS8)

>  <% Increase of efficacy at hA3AR at 10 μM, %>
132

$$$$
>  <molecule>
c1ccc(Nc2nc3ccccc3c3[nH]c(C4CCCC4)nc23)cc1 [Compound 30, reference compound]

>  <tgt>
human A3ARs (Homo sapiens (Human), UniProt P0DMS8)

>  <% Increase of efficacy at hA3AR at 10 μM, %>
138

$$$$
>  <molecule>
Clc1ccc(Nc2nc3ccccc3c3[nH]c(-c4ccco4)nc23)cc1Cl [Compound 43]

>  <tgt>
human A3ARs (Homo sapiens (Human), UniProt P0DMS8)

>  <% Increase of efficacy at hA3AR at 10 μM, %>
95

$$$$
>  <molecule>
Clc1ccc(Nc2nc3ccccc3c3[nH]c(C4CCCCCC4)nc23)cc1Cl [Compound 42]

>  <tgt>
human A3ARs (Homo sapiens (Human), UniProt P0DMS8)

>  <% Increase of efficacy at hA3AR at 10 μM, %>
115

$$$$

In: Return reported % Increase of efficacy at hA3AR at 10 μM; argument: c1ccc(CNc2nc3ccccc3c3[nH]c(C4CCCC4)nc23)cc1 [Compound 40]
Out: 147

In: Return reported % Increase of efficacy at hA3AR at 10 μM; argument: Clc1ccc(Nc2nc3ccccc3c3[nH]c(C4CCC4)nc23)cc1Cl [Compound 44]
Out: 126

In: Return reported % Increase of efficacy at hA3AR at 10 μM; argument: c1ccc(CCNc2nc3ccccc3c3[nH]c(C4CCCC4)nc23)cc1 [Compound 41]
Out: 137

In: Return reported % Increase of efficacy at hA3AR at 10 μM; argument: COc1ccc(CNc2nc3ccccc3c3[nH]c(C4CCCC4)nc23)cc1 [Compound 38]
Out: 109

The reported numbers originate from patent US9326978B2.
